- EXPERIMENTAL TARGET: aldose reductase (Bos taurus, UniProt P16116)
TEST READOUT: IC50

Observed IC50 on aldose reductase (Bos taurus, UniProt P16116), entry O=C1NC(=O)C2(N1)c1ccccc1CCC2c1ccccc1 (stereo not shown) , equals > 100 µM
